Readings of GI50 for the listed molecules
# System: NCI-H23
# Procedure Text: NCI tumour cell line growth inhibition, 48 h
Activity calls are given as the source filed them. Cut-off read from the data, not from the text of the source: active = GI50 up to about 1.1 µM and inactive = higher.
Test Readout: GI50

mol=NC(=O)c1ccc[n+](C2=C([N-]S(=O)(=O)c3ccccc3)C(=O)c3ccccc3C2=O)c1 study_target=NCI-H23 result="14.9 µM (inactive)"
mol=CCOC(=O)c1cc2c3ccn(Cc4ccccc4)c3c3c(C)noc3c2[nH]1 study_target=NCI-H23 result="> 100 µM (inactive)"
mol=O=c1c2ccccc2nc(-c2cc3c(cc2Cl)Sc2nccn2S3(=O)=O)n1-c1ccccc1 study_target=NCI-H23 result="62.5 µM (inactive)"
mol=Nc1ccccc1NC(=O)c1ccc(CNC(=O)OCc2cccnc2)cc1 study_target=NCI-H23 result="1.38 µM (inactive)"
mol=CC(C)c1cccc(C(C)C)c1NC(=O)CCC(=O)NN study_target=NCI-H23 result="> 100 µM (inactive)"
